# TESTED_TARGET: human Nav1.7 (Homo sapiens (Human), UniProt Q15858)
# ASSAY_DETAILS: FLIPR or FLIPR TETRA sodium dye assay with KCl and test article pre-incubation
# Type: cell-based
# CONDITION_INFO: read-out: Nav1.7 Activity (μM) FLIPR assay IC50 (μM) ± SEM
Note to self: IC50 under 0.1 µM means 1 (yes), ties and anything higher get 0 (no).

// below: answered compounds
COMPOUND	CLASS
Cc1cc(C(=O)N[C@@H](CO)C(=O)Nc2cccc(-c3ccc(Oc4ccc(F)cc4)cc3)n2)no1	0 (no)
CC(C)C[C@H](NC(=O)CO)C(=O)Nc1cccc(-c2ccc(Oc3ccc(F)cc3)cc2)n1	1 (yes)
O=S(=O)(Nc1cccc(-c2ccc(Oc3ccc(F)cc3)cc2)n1)C1CC1	0 (no)

Req: Please indicate whether the reported IC50 of CC(C)C[C@H](NC(=O)NC(C)C)C(=O)Nc1cccc(-c2ccc(Oc3ccc(F)cc3)cc2)n1 is strictly below 0.1 µM.
Resp: 1 (yes)

Req: Lookup O=C(Nc1cccc(-c2ccc(Oc3ccc(C(F)(F)F)cc3)cc2)n1)C(O)CO (stereo not drawn)
Resp: 0 (no)

Req: Lookup CC(=O)N[C@@H](Cc1cn(C)cn1)C(=O)Nc1cc(-c2ccc(Oc3ccc(F)cc3)cc2)ccn1
Resp: 0 (no)

Req: Lookup COCCOCC(=O)N[C@@H](CC(C)C)C(=O)Nc1cccc(-c2ccc(Oc3ccc(F)cc3)cc2)n1
Resp: 1 (yes)

Req: Lookup CCC(=O)N[C@@H](Cc1cn(C)cn1)C(=O)Nc1cccc(-c2ccc(Oc3ccc(F)cc3)cc2)n1
Resp: 1 (yes)

====

# TESTED_TARGET: hNav1.7 (Homo sapiens (Human), UniProt Q15858)
# Sequence (Q15858 other isoform, or with tags, fused parts or gaps): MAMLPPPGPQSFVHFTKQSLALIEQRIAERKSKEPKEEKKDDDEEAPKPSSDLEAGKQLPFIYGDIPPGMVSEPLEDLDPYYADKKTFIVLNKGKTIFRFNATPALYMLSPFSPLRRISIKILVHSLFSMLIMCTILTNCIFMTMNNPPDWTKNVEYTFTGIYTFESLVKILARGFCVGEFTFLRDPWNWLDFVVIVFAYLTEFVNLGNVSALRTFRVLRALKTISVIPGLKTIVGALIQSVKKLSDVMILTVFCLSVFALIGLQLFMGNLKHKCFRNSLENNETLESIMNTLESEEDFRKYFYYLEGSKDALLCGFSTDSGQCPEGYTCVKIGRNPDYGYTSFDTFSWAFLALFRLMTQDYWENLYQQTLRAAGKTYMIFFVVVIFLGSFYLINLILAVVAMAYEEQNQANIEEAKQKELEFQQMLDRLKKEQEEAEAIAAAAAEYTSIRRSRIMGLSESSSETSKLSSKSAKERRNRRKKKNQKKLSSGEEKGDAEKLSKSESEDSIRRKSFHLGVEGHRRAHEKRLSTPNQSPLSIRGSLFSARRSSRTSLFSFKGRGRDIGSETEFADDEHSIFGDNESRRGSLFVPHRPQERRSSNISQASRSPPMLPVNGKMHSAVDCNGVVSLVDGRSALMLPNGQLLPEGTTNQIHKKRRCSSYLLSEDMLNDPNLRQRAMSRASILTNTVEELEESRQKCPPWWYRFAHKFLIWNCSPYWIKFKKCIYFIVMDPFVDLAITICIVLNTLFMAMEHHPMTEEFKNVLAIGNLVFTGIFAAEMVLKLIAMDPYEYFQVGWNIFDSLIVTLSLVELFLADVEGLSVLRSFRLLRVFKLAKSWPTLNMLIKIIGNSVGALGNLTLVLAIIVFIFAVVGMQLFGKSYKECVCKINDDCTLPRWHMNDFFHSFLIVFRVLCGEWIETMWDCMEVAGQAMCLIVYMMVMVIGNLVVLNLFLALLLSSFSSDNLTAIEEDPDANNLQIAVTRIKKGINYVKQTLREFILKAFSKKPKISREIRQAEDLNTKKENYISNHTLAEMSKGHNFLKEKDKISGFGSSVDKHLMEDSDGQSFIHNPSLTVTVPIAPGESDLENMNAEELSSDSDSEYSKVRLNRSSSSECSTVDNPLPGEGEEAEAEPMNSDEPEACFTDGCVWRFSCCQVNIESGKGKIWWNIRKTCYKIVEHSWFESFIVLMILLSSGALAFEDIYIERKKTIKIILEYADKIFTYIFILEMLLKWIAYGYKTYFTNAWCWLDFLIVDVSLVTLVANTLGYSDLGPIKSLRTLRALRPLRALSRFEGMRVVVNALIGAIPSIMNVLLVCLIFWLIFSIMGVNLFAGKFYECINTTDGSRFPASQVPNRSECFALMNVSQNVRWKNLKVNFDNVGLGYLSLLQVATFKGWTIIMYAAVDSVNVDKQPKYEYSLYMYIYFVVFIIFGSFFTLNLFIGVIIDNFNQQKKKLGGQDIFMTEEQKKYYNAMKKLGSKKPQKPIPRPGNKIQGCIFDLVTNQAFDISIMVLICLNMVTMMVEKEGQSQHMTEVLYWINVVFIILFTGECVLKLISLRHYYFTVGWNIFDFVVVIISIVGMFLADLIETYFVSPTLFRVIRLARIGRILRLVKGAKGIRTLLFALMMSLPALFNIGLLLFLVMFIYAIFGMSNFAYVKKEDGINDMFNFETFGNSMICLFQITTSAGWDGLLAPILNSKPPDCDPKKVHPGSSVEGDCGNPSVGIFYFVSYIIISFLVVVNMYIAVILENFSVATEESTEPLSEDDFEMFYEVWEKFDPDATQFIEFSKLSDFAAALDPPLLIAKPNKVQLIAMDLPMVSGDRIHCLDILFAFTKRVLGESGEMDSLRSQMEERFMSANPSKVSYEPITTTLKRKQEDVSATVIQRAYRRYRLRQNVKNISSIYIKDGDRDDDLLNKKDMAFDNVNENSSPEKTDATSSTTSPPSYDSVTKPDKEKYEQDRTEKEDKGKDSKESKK
# ASSAY_DETAILS: Electrophysiology (EP) assay, whole-cell patch clamp
# Format: cell-based
# CONDITION_INFO: affinity for the inactivated state of the channel; hNav1.7 HEK-293 cells; read-out: Nav1.7 Activity (μM) EP assay Ki
QUANTITY_NAME: Ki (µM)
Kindly provide the numeric value in µM only, without the unit symbol.

COMPOUND	TESTED_TARGET	QUANTITY_NAME	READING
O=C(CO)N[C@@H](CO)C(=O)Nc1cccc(-c2ccc(Oc3ccc(F)cc3)cc2)n1 [Compound 60]	hNav1.7 (Homo sapiens (Human), UniProt Q15858)	Ki	0.113
O=C(N[C@@H](Cc1c[nH]cn1)C(=O)Nc1cccc(-c2ccc(Oc3ccc(F)cc3)cc2)n1)C1CC1 [Compound 33]	hNav1.7 (Homo sapiens (Human), UniProt Q15858)	Ki	0.206
CC(=O)N[C@@H](CC(C)C)C(=O)Nc1cccc(-c2ccc(Oc3ccc(F)cc3)cc2)n1 [Compound 3]	hNav1.7 (Homo sapiens (Human), UniProt Q15858)	Ki	0.194
CC(=O)N[C@@H](Cc1ccccc1)C(=O)Nc1cccc(-c2ccc(Oc3ccc(F)cc3)cc2)n1 [Compound 4]	hNav1.7 (Homo sapiens (Human), UniProt Q15858)	Ki	0.13
CC(C)C[C@H](NC(=O)c1ccccn1)C(=O)Nc1cccc(-c2ccc(Oc3ccc(F)cc3)cc2)n1 [Compound 7]	hNav1.7 (Homo sapiens (Human), UniProt Q15858)	Ki	0.059

Req: For O=C(Nc1cccc(-c2ccc(Oc3ccc(F)cc3)cc2)n1)C(O)CO (stereo not shown) [Compound 72] , what is its reported Ki?
Resp: 0.143

Req: Lookup CC(C)C[C@H](NC(N)=O)C(=O)Nc1cccc(-c2ccc(Oc3ccc(F)cc3)cc2)n1 [Compound 12]
Resp: 0.257

Req: Lookup CC(C)C[C@H](NC(=O)NC(C)(C)C)C(=O)Nc1cccc(-c2ccc(Oc3ccc(F)cc3)cc2)n1 [Compound 13]
Resp: 0.075

Req: Lookup CC(=O)N[C@@H](Cc1c[nH]cn1)C(=O)Nc1cccc(-c2ccc(Oc3ccc(F)cc3)cc2)n1 [Compound 32]
Resp: 0.025

Req: Lookup O=C(N[C@@H](CO)C(=O)Nc1cccc(-c2ccc(Oc3ccc(F)cc3)cc2)n1)c1cccnc1 [Compound 56]
Resp: 0.195

Req: Lookup CS(=O)(=O)N[C@@H](Cc1c[nH]cn1)C(=O)Nc1cccc(-c2ccc(Oc3ccc(F)cc3)cc2)n1 [Compound 38]
Resp: 0.019

Req: Lookup N[C@@H](CO)C(=O)Nc1cccc(-c2ccc(Oc3ccc(F)cc3)cc2)n1 [Compound 70]
Resp: 0.046

Req: Lookup O=C1NCCN1CCNc1cc([C@H](O)CO)cc(-c2ccc(Oc3ccc(F)cc3)cc2)n1 [Compound 66]
Resp: 1.37

====

# TESTED_TARGET: human Nav1.7 (Homo sapiens (Human))
# ASSAY_DETAILS: FLIPR or FLIPR TETRA sodium dye assay with KCl and test article pre-incubation
# Assay type: cell-based
# CONDITION_INFO: read-out: Nav1.7 Activity (μM) FLIPR assay IC50 (μM) ± SEM
Note to self: IC50 under 0.1 µM means satisfied, ties and anything higher get not satisfied.

COMPOUND	CLASS
CS(=O)(=O)N[C@@H](Cc1c[nH]cn1)C(=O)Nc1cccc(-c2ccc(Oc3ccc(F)cc3)cc2)n1	not satisfied
COCC(=O)N[C@@H](Cc1c[nH]cn1)C(=O)Nc1cccc(-c2ccc(Oc3ccc(F)cc3)cc2)n1	not satisfied
CS(=O)(=O)N(C[C@H](O)CO)c1cc(Cl)cc(-c2ccc(Oc3ccc(F)cc3)cc2)n1	satisfied
Cn1cnc(C[C@H](NC(=O)C(C)(C)C)C(=O)Nc2cccc(-c3ccc(Oc4ccc(F)cc4)cc3)n2)c1	satisfied
O=C(N[C@@H](Cc1c[nH]cn1)C(=O)Nc1cccc(-c2ccc(Oc3ccc(F)cc3)cc2)n1)C1CC1	not satisfied
O=C(N[C@@H](CO)C(=O)Nc1cccc(-c2ccc(Oc3ccc(F)cc3)cc2)n1)c1ccccn1	satisfied
CC(C)(C)OC(=O)N[C@@H](CO)C(=O)Nc1cccc(-c2ccc(Oc3ccc(F)cc3)cc2)n1	not satisfied
CC(C)(O)C(=O)N[C@@H](Cc1c[nH]cn1)C(=O)Nc1cccc(-c2ccc(Oc3ccc(F)cc3)cc2)n1	not satisfied
CS(=O)(=O)Nc1cc(Cl)cc(-c2ccc(Oc3ccc(F)cc3)cc2)n1	not satisfied
CC(=O)N[C@@H](Cc1c[nH]cn1)C(=O)Nc1cccc(-c2ccc(Oc3ccc(F)cc3)cc2)n1	satisfied

Req: Please indicate whether the reported IC50 of Cn1cnc(C[C@H](NC(=O)CC(F)(F)F)C(=O)Nc2cccc(-c3ccc(Oc4ccc(F)cc4)cc3)n2)c1 is strictly below 0.1 µM.
Resp: satisfied

Req: Lookup O=C(N[C@@H](CO)C(=O)Nc1cccc(-c2ccc(Oc3ccc(F)cc3)cc2)n1)c1cccnc1
Resp: not satisfied

Req: Lookup CC(=O)N1CCC(C(=O)N[C@@H](Cc2c[nH]cn2)C(=O)Nc2cccc(-c3ccc(Oc4ccc(F)cc4)cc3)n2)CC1
Resp: not satisfied

Req: Lookup O=C(Nc1cccc(-c2ccc(Oc3ccc(C(F)(F)F)cn3)cc2)n1)C(O)CO (stereo not drawn)
Resp: not satisfied

Req: Lookup CS(=O)(=O)Nc1cccc(-c2ccc(Oc3ccc(F)cc3)cc2)n1
Resp: not satisfied

====

# TESTED_TARGET: human Nav1.7 (Homo sapiens (Human), UniProt Q15858)
# ASSAY_DETAILS: FLIPR or FLIPR TETRA sodium dye assay with KCl and test article pre-incubation
# Type: cell-based
# CONDITION_INFO: read-out: Nav1.7 Activity (μM) FLIPR assay IC50 (μM) ± SEM
QUANTITY_NAME: IC50 (µM)
Kindly provide the numeric value in µM only, without the unit symbol.

Below are worked cases with known answers.
NC(=O)N[C@@H](CO)C(=O)Nc1cccc(-c2ccc(Oc3ccc(F)cc3)cc2)n1 0.12
CC(C)C[C@H](NC(=O)c1ccccn1)C(=O)Nc1cc([C@H](O)CO)cc(-c2ccc(Oc3ccc(F)cc3)cc2)n1 0.3
O=C(CO)N[C@@H](Cc1c[nH]cn1)C(=O)Nc1cccc(-c2ccc(Oc3ccc(F)cc3)cc2)n1 0.14
O=C1NCCN1CCNc1cc(Cl)cc(-c2ccc(Oc3ccc(F)cc3)cc2)n1 0.12
N[C@@H](Cc1c[nH]cn1)C(=O)Nc1cccc(-c2ccc(Oc3ccc(F)cc3)cc2)n1 0.18

Req: For CS(=O)(=O)Nc1cc([C@H](O)CO)cc(-c2ccc(Oc3ccc(F)cc3)cc2)n1 , what is its reported IC50?
Resp: 2.9

Req: Lookup CC(C)C[C@H](NC(=O)c1ccccn1)C(=O)Nc1cccc(-c2ccc(Oc3ccc(F)cc3)cc2)n1
Resp: 0.067

Req: Lookup CC(C)C(=O)N[C@@H](Cc1cn(C)cn1)C(=O)Nc1cccc(-c2ccc(Oc3ccc(F)cc3)cc2)n1
Resp: 0.046

Req: Lookup Cn1cnc(C[C@H](NC(=O)Nc2cccc(-c3ccc(Oc4ccc(F)cc4)cc3)n2)C(N)=O)c1
Resp: 0.667

Req: Lookup O=C(N[C@@H](CO)C(=O)Nc1cccc(-c2ccc(Oc3ccc(F)cc3)cc2)n1)C1CC1
Resp: 0.06
